- Test system: Wolbachia pipientis
- Assay comment: Anti-Wolbachia Cell-Based Screen
- Assay type: functional
- Design: scale not given: in the data most compounds retested in dose-response had high values
- Measurement setup: 5 µM
Out of some 48,000 compounds screened, about 13,000 (27%) showed an effect of 50% or more. This is one part of the list.
Endpoint name: Percent Effect

- Compound: "CC(C)NCC1OCCc2cn(C)nc21.O=C(O)C(F)(F)F (centres undefined)"
  Percent Effect: "25.68%"
- Compound: "CN1CCCC[C@@H]2[C@H]1[C@@H](c1ccccc1)CCN2C(=O)c1cnccn1"
  Percent Effect: "3.186%"
- Compound: "O=C(O)C(F)(F)F.O=C(O)C(F)(F)F.O=C(O)C(F)(F)F.c1ccc(Cn2cc3c(n2)C(CNCc2ccco2)OCC3)nc1 (centres undefined)"
  Percent Effect: "-0.4855%"
- Compound: "O=C(c1ccccn1)N1C[C@@H]2CC[C@H](C1)N(C(=O)CCN1CCCC1)C2"
  Percent Effect: "-10.03%"
- Compound: "Cn1cc2c(n1)C(CNCC1CCOCC1)OCC2.O=C(O)C(F)(F)F.O=C(O)C(F)(F)F (centres undefined)"
  Percent Effect: "10.93%"
- Compound: "COCCn1cc2c(n1)C(CNCc1ccco1)OCC2.O=C(O)C(F)(F)F.O=C(O)C(F)(F)F (centres undefined)"
  Percent Effect: "3.436%"
- Compound: "Cc1occc1C(=O)NCC1OCCc2cn(C)nc21.O=C(O)C(F)(F)F (centres undefined)"
  Percent Effect: "115.2%"
- Compound: "CC(C)CCN(C(=O)c1cccc(NC(N)=O)c1)C1CC1"
  Percent Effect: "-12.61%"

Field: next compound
Exercise: Query Percent Effect for COc1ccc(NC(=O)c2ccc(-n3ncc(C#N)c3N)cc2)cn1
Key: -17.39%

* * *

- Tested on: Wolbachia pipientis
- Assay comment: Anti-Wolbachia Cell-Based Screen
- Format: functional
- Parameters: scale not given: in the data most compounds retested in dose-response had high values
- Measurement setup: 5 µM
The whole screen tested about 48,000 compounds, of which about 13,000 (27%) showed an effect of 50% or more. The list shows a part of the results.
For each entry below, report its Percent Effect value.
Be sure to follow the number with its unit.

As a guide, the following entries are already answered.
- Molecule: "O=C(O)C(F)(F)F.O=C1NC(c2ccccc2)=N[C@@]12CC[C@@H]1CN(Cc3ccccc3)C[C@@H]12"
  Value: "4.255%"
- Molecule: "CC1(C)CC(N2Cc3nc(N)ncc3C2=O)CC(C)(C)N1"
  Value: "-10.52%"
- Molecule: "OCC1CCN(Cc2cc3c(cc2Br)OCCO3)CC1"
  Value: "-6.909%"
- Molecule: "CCNC(=O)Cn1ncc(N(C)CCc2ccccc2)cc1=O"
  Value: "6.09%"
- Molecule: "Cc1nc2ccc(CN3CC4(CCOC4)CCC3=O)cc2[nH]1 (configuration not stated)"
  Value: "9.533%"

# batch size: 5; output Percent Effect per entry
1. COc1cccc(CC(=O)N2CCC(O)(C(F)(F)F)C2)c1 (configuration not stated)
2. CCC1=N[C@@]2(CC[C@@H]3CN(Cc4ccccc4C)C[C@@H]32)C(=O)N1C.O=C(O)C(F)(F)F
3. Cc1ccc(NC(=O)NC(C)C(=O)N2CCS(=O)(=O)CC2)cc1 (configuration not stated)
4. CC1=N[C@@]2(CC[C@@H]3CN(CC(C)C)C[C@@H]32)C(=O)N1C.O=C(O)C(F)(F)F
5. CC(C)C(C)N1Cc2cccc(NCC(=O)N(C)C)c2C1 (configuration not stated)

Key:
1. -3.145%
2. 114.6%
3. -2.937%
4. 8.258%
5. 11.84%

Look up Percent Effect for the entries below, preserving their order.
1. Cc1ccc(OCC(O)CNC(=O)C2(c3ccc(F)cc3)CC2)cc1 (configuration not stated)
2. Cc1nc(CNC(=O)NCC(F)(F)F)oc1C
3. OC1(CNC2CCN(c3ccccn3)CC2)CCc2ccccc21 (configuration not stated)
4. COc1ccc(F)c(CN2CCCC(O)(CNCc3ccoc3)C2=O)c1 (configuration not stated)

Key:
-8.798%
5.267%
6.779%
4.177%

List reported Percent Effect for each of these molecules:
1. CCN(CC)C1(Cc2cc(-c3cccc(O)c3)on2)COC1
2. c1cn(CCn2cnnc2)c(-c2cc3n(n2)CCCNC3)n1
3. CCC1=N[C@@]2(CC[C@@H]3CN(Cc4ccc(C)cc4)C[C@@H]32)C(=O)N1C.O=C(O)C(F)(F)F
4. CCC1=N[C@@]2(CC[C@@H]3CN(Cc4cccc(Cl)c4)C[C@@H]32)C(=O)N1C.O=C(O)C(F)(F)F

Key:
1. -3.325%
2. -4.741%
3. 81.5%
4. 95.01%

* * *

- Test system: Wolbachia pipientis
- Assay comment: Anti-Wolbachia Cell-Based Screen
- Assay type: functional
- Set-up: scale not given: in the data most compounds retested in dose-response had high values
- Measurement setup: 5 µM
Hit rate of the full screen: of about 48,000 compounds, about 13,000 (27%) showed an effect of 50% or more. The list shows a part of the results.
Assign Percent Effect to each entry below.

Example entries and their recorded answers appear below.
- Compound: "CC(C)c1ocnc1C(=O)N1CCCC(c2ccn[nH]2)C1 (stereo unspecified)"
  Percent Effect: "-7.734%"
- Compound: "O=C(c1cnc2ccccn12)N1CCCC(c2ccn[nH]2)C1 (stereo unspecified)"
  Percent Effect: "107.7%"
- Compound: "O=C(CN1CCCC(c2ccn[nH]2)C1)Nc1nncs1 (stereo unspecified)"
  Percent Effect: "12%"
- Compound: "O=C(c1cc(=O)n(-c2ccccc2)[nH]1)N1CCCC(c2ccn[nH]2)C1 (stereo unspecified)"
  Percent Effect: "77.64%"
- Compound: "Cn1cncc1C(=O)N1CCCC(c2ccn[nH]2)C1 (stereo unspecified)"
  Percent Effect: "108.7%"

Switching to the query record.
Exercise: For Wolbachia pipientis, give Percent Effect of the listed compound: CC(C)c1cnc(CN2CCCC(c3ccn[nH]3)C2)o1 (stereo unspecified)
Key: -28.34%

* * *

- System: Wolbachia pipientis
- Assay comment: Anti-Wolbachia Cell-Based Screen
- Assay type: functional
- Parameters: scale not given: in the data most compounds retested in dose-response had high values
- Measurement setup: 5 µM
Among all 48,000 compounds or so, about 13,000 (27%) showed an effect of 50% or more. The list shows a part of the results.
Endpoint name: Percent Effect (%)
Numbers only, in %.

- Molecule: "COc1ccc(Oc2ncccc2C(F)(F)F)cc1CN1CCCC1"
  Display unit: "%"
  Percent Effect: 21.25
- Molecule: "NCC1CCN(c2cnn(CCCn3cccn3)c(=O)c2)CC1"
  Display unit: "%"
  Percent Effect: 3.68
- Molecule: "CC1CCC(NS(=O)(=O)CC(=O)Nc2ccccc2N2CCCC2)CC1 (stereo unspecified)"
  Display unit: "%"
  Percent Effect: 3.293
- Molecule: "CCCc1nccn1-c1ccncc1"
  Display unit: "%"
  Percent Effect: 13.78
- Molecule: "CC(C)n1cnc(C2CN(C)c3ccc(C(=O)NCC4CC4)cc32)n1 (stereo unspecified)"
  Display unit: "%"
  Percent Effect: -10.28

Take each entry in turn and give its Percent Effect.
1. Cc1cc(-c2nn(C)c(Cl)c2CN2CC[C@@](O)(C3CCC3)[C@H](C)C2)no1
2. Cc1ccc(C(C(=O)O)N2CCCN(Cc3ccccn3)CC2)c(F)c1 (stereo unspecified)
3. COc1ccccc1NC(=O)c1[nH]nc(C(C)C)c1Br
4. COc1cccc(CN2CCc3nc(C(N)=O)sc3CC2)c1.O=C(O)C(F)(F)F
5. CCc1nnsc1C(=O)NCC1CN(CC(C)C)CCO1 (stereo unspecified)
6. NC(=O)Cn1ccc(NC(=O)C2(c3cccc(Cl)c3)CC2)n1

Key:
1. 9.361
2. -1.838
3. -4.147
4. 8.884
5. 19.89
6. -4.273

* * *

Record form. Attribute: Percent Effect. Fill in for each entry.
- System: Wolbachia pipientis
- Assay comment: Anti-Wolbachia Cell-Based Screen
- Type: functional
- Set-up: scale not given: in the data most compounds retested in dose-response had high values
- Measurement setup: 5 µM
About 13,000 (27%) of roughly 48,000 compounds showed an effect of 50% or more. The list shows a part of the results.
Answers are plain numbers, in %.

- Compound: "COc1c(CNCC(O)COc2ccc3c(c2)OCO3)c(C)nn1C (stereo not given)"
  Experimental target: "Wolbachia pipientis"
  Percent Effect (%): 70.56
- Compound: "CN(C)C(=O)N1CCN(Cc2ccc3occc3c2)[C@H]2CS(=O)(=O)C[C@H]21"
  Experimental target: "Wolbachia pipientis"
  Percent Effect (%): -2.327
- Compound: "O=C(Cn1cc(C2CC2)nn1)NC(c1ccc(Cl)cc1)C1CC1 (stereo not given)"
  Experimental target: "Wolbachia pipientis"
  Percent Effect (%): -3.06

Need Percent Effect for each of these compounds.
1. COCCCN1CC2(CCCN(c3ncnc4[nH]cnc34)C2)CCC1=O (stereo not given)
2. O=C1CC2(CCN(C(=O)c3csc(-c4ccccc4)n3)C2)C(=O)N1 (stereo not given)

Key:
1. -3.857
2. 6.339
